Tested on: MOLT-4 leukemia
Experiment: NCI tumour cell line growth inhibition, 48 h
Provide the reported TGI of each item.
Give just the numeric value; µM need not be written.

Request: // query TGI value for entry O=C(O)/C=C\C(=O)N1C/C(=C\c2ccccc2Cl)C(=O)/C(=C/c2ccccc2Cl)C1
Result: 11.2

Request: Name the recorded TGI for C=CCC[CH2][Sn]([c]1ccccc1)([c]1ccccc1)[c]1ccccc1 .
Result: 5.27

###

Test system: HT29 colon
Experiment: NCI tumour cell line growth inhibition, 48 h; in the data active = GI50 below about 0.43 µM; inactive = the rest
Respond with a class label; see class 1 = active, class 0 = inactive

Request: Assay outcome for COc1ccc(-c2c3c(N)nc(-c4ccncc4)nc3nc3c2c(C)nn3-c2ccccc2)cc1 : what was it?
Result: class 0

Request: Lab log entry: COc1ccc(OC)c(/C=C2\SC(=S)NC2=O)c1 — outcome as called in the assay?
Result: class 0

Request: What did the test return for CCOC(=O)c1cc(NS(=O)(=O)c2ccccc2)cc(C(=O)OCC)c1 ?
Result: class 0

Request: For this compound, state the assay outcome: CN1CCC(n2cnc(-c3ccc(F)cc3)c2-c2ccnc(NCCO)n2)CC1
Result: class 0

Request: Please let me know the test result on file for C1C[OH+]CC[OH+]CCNCC[OH+]CC[OH+]CCN1.N.[Cl-].[Pt+4] .
Result: class 0

Request: For CC1(C)CC(=O)c2c(C(F)(F)F)nn(-c3ccc(C(N)=O)c(NC4CCC(OC(=O)CN)CC4)c3)c2C1 (stereo not drawn) , which call appears in the assay record?
Result: class 1

Request: Recorded test outcome, item CCCCCCCCN=C(N)c1ccc(N2CCN(c3ccc(C(N)=NCCCCCCCC)cc3)CC2)cc1
Result: class 0

Request: Call for entry CCN(CC)CC(C)Nc1ccc([N+](=O)[O-])c2sc3ccccc3c(=O)c12 (stereo not drawn) :
Result: class 0

Request: What classification did Oc1cccc2ccc(N/N=C/c3cc(CN4CCCCC4)c(O)c4ncccc34)nc12 end up with in this test?
Result: class 1

Request: What outcome does the record of this test show for COc1ccc(-c2nn3c(-c4cc(F)c(Cl)cc4Cl)nnc3s2)cc1 ?
Result: class 0

Request: Hi, do you know how CCCC(C)c1cc(Cc2cc(Cl)cc(Cl)c2O)c(O)c(Cc2cc(Cl)cc(Cl)c2O)c1 (stereo not drawn) came out in this test?
Result: class 0

Request: Short answer needed: outcome of this test for COC(C(=O)[O][Ge]([CH3])([CH3])[CH3])c1ccccc1 (stereo not drawn) ?
Result: class 0

Request: In this assay, the call recorded for CC1SC(c2ccccc2)N(CCc2cccs2)C1=O (stereo not drawn) was what?
Result: class 0
